Data credit: patent US9556231B2

Assay: Pharmacokinetic study (PK), i.v., CD-1 mice
Type: in vivo
Settings: male, CD-1, in vivo, iv; mouse, i.v. 1 mg/kg, 4 h; read-out: Calc. Conc. (plasma)
Bridge positions count the residues as written; N and C are the ends. Square brackets hold non-standard residues; d marks the D form. Peptide text beside a SMILES is read from it. Lys(iPr) = CC(C)NCCCC[C@H](N)C(=O)O; Dab = NCC[C@H](N)C(=O)O

compound	unit_string	level at 4 h
CC(C)NCCCC[C@@H]1NC(=O)[C@H](CCC(N)=O)NC(=O)[C@H](Cc2ccc(O)cc2)NC(=O)[C@@H]2CSSC[C@H](NC(=O)[C@H](C)NC(=O)[C@H](Cc3c[nH]cn3)NC(=O)[C@H](Cc3ccc(O)cc3)NC(=O)[C@@H]3CCCN3C(=O)[C@H]3CCCN3C1=O)C(=O)N[C@@H](CO)C(=O)N[C@@H](C)C(=O)N[C@H](Cc1ccc(O)cc1)C(=O)N[C@@H](CCN)C(=O)N[C@@H](CCCNC(=N)N)C(=O)N[C@@H](Cc1ccc(O)cc1)C(=O)N2 [Ex. 3] (cyclo(YHACSA[dY][Dab]RYCYQ[Lys(iPr)][dP]P); disulfide 4-11)	ng/mL	12
